- Tested on: U87-MG cells
- EXPERIMENT_SUMMARY: CCK-8 IC50 determination in U87-MG cells with or without GLUT3 KD
- Assay type: cell-based, human
- ASSAY_CONTEXT: GLUT3 KD vs control, CCK-8, 24 h drug treatment

# GIVEN_SMILES, SYSTEM_NAME, fold increase of IC50 on GLUT3 knockdown / fold
rows = [
    ("CCCCCOC(=O)Nc1nc(=O)n([C@@H]2O[C@H](C)[C@@H](O)[C@H]2O)cc1F", "U87-MG cells", 56.5),
    ("Nc1ccn([C@@H]2O[C@H](CO)[C@@H](O)[C@@H]2O)c(=O)n1", "U87-MG cells", 4.3),
    ("Cn1nnc2c(C(N)=O)ncn2c1=O", "U87-MG cells", 10.6),
]

* * *

- SYSTEM_NAME: GLUT3 (Homo sapiens, UniProt P11169)
- Construct: expressed in transfected cells
- Sequence (P11169 whole entry): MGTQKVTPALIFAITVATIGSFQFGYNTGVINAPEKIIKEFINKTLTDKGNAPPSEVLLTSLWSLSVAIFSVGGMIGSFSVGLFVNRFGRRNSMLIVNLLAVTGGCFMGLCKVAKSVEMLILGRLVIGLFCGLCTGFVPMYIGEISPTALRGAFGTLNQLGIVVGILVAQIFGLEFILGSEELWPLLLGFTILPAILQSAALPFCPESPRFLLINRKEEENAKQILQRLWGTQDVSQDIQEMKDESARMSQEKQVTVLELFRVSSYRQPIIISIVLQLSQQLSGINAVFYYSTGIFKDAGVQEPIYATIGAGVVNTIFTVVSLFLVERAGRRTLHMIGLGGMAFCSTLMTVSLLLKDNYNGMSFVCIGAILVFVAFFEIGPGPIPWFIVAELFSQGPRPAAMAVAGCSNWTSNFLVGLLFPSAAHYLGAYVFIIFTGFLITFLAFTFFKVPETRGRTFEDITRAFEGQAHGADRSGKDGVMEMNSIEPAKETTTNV
- EXPERIMENT_SUMMARY: Microscale thermophoresis (MST) binding assay, GLUT3-GFP in cell lysates
- ASSAY_CONTEXT: across the tested GBM cell lines (U343-MG, U251-MG); read-out: Kd values
pKd: −log10 of the molar value.

# COMPOUND, pKd
data = [
    ("Cn1nnc2c(C(N)=O)ncn2c1=O [TMZ]", "6.15 to 6.52"),
]

* * *

- SYSTEM_NAME: GLUT3 (Homo sapiens)
- Construct: expressed in transfected cells
- EXPERIMENT_SUMMARY: Microscale thermophoresis (MST) binding assay, GLUT3-GFP in cell lysates
- ASSAY_CONTEXT: U251-MG lysate, GLUT3-GFP, pH 6.8; read-out: Kd
- Procedure: Data from three independent measurements were analyzed using MO. Affinity Analysis software (version 2.1.3, NanoTemper Technologies).

# GIVEN_SMILES, SYSTEM_NAME, Kd / nM
data = [
    ("CCCCCOC(=O)Nc1nc(=O)n([C@@H]2O[C@H](C)[C@@H](O)[C@H]2O)cc1F", "GLUT3 (Homo sapiens)", 1800),
]
